- experimental.target: Neuropeptides B/W receptor type 1 (Homo sapiens)
- test.name: GPR7 receptor antagonists, primary screen, cell-based, fluorescence, single concentration (AID 1861);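 note: cells stimulated with the agonist NPW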
- protocol.conditions: GPR7-expressing cells, fluorescence antagonist assay; at 4.4 µM
Hit rate of the full screen: of about 290,000 compounds, about 3,100 (1.1%) were called active. Cut-off read from the data, not from the text of the source: active = inhibition above about 16% (passing the limit was not always enough); inactive = the rest. What follows is part of a selection rich in actives, with near analogues and random picks from the rest.
Pick one: active, inactive

Problem: Please share the test call associated with CCOC(=O)C1CCN(C(=O)CN2C(=O)c3cccnc3Oc3ccc(C)cc32)CC1 .
Solution: inactive

Problem: // outcome(item) with item = COc1ccccc1N1CCN(C(=O)c2ccc(NC3=NC4CS(=O)(=O)CC4S3)cc2)CC1 (stereo unspecified)
Solution: inactive

Problem: Per the assay record, what outcome was assigned to CC1=CCC2C(=O)N(c3cccc(C(=O)NC(C)c4ccccc4)c3)C(=O)C2C1 (stereo unspecified) ?
Solution: inactive

Problem: Assay outcome for CNS(=O)(=O)c1cccc(C(=O)NC2CCCc3ccccc32)c1 (stereo unspecified) : what was it?
Solution: inactive

Problem: What did this assay record as the result for Cc1cc(C)cc(OCC(=O)NC(C)c2ccccc2)c1 (stereo unspecified) ?
Solution: inactive

Problem: Assay outcome for CCN(CC)CCOCCOc1ccc(Cl)c2ccccc12 : what was it?
Solution: active

Problem: What outcome does the record of this test show for Clc1cccc(Cl)c1OCCOCCNCc1ccccc1 ?
Solution: inactive

Problem: Test call, this molecule: O=C(c1ccco1)N1CCN(Cc2cccc(C(F)(F)F)c2)CC1
Solution: inactive

Problem: Tell me the recorded outcome of this test for Cc1nonc1C1CCCN1C(=O)c1cc(COc2cccc(C(F)(F)F)c2)on1 (stereo unspecified) .
Solution: inactive

Problem: What did the test return for Cc1cc(-c2n[nH]c(=S)n2/N=C/C(Br)=C/c2ccccc2)n[nH]1 ?
Solution: inactive

Problem: Returns: the outcome recorded for CCOCCCn1c(SCC(=O)Nc2cc(OC)ccc2OC)nc2ccccc2c1=O in this assay.
Solution: inactive
